- measurementNotes: Human clinical study, urethral strictures: paclitaxel in blood, urine, semen
- Assay type: in vivo
- measurementContext: human, urine; 5 days

>  <recordSmiles>
CC(=O)O[C@H]1C(=O)[C@@]2(C)[C@H]([C@H](OC(=O)c3ccccc3)[C@]3(O)C[C@H](OC(=O)[C@H](O)[C@@H](NC(=O)c4ccccc4)c4ccccc4)C(C)=C1C3(C)C)[C@]1(OC(C)=O)CO[C@@H]1C[C@@H]2O

>  <concentration at 5 days (ng/mL)>
2.6

$$$$

Values were extracted from patent US12280179B2.
